Readings of Kd for the listed binders
target_of_assay: T1, LRP2 CR89 (UniProt P98164 1025-1102, limits assumed)
T1 construct: domain: CR89
experimental_protocol: solid-phase binding (OD), single-site non-linear regression
Give just the numeric value; nM need not be written.

Field: example entries. Status: answers known.
{"columns": ["binder", "value_kind", "value_measured"],
 "data": [
  ["MegaRAP1 d3 T213S (ligand, also called MegaRAP1 T213S) GLDRLRRVSHQGYSTEAKFEEPRVIDLWDLAQSANLTDKELEAFREELKYFKAKIEAHNHYQKQLEIAHEELRHAESVGDGERVSRSREKHALLEGRTKELGYTVKKHLQDLSGRISRARHNEL", "Kd", 19],
  ["MegaRAP1 d3 A256K, E270K (ligand, also called MegaRAP1 A256K, E270K) GLDRLRRVSHQGYTTEAKFEEPRVIDLWDLAQSANLTDKELEAFREELKYFKAKIEKHNHYQKQLEIAHEKLRHAESVGDGERVSRSREKHALLEGRTKELGYTVKKHLQDLSGRISRARHNEL", "Kd", 72],
  ["MegaRAP1 d3 (ligand, also called RAPv2A d3; RAP v2) GLDRLRRVSHQGYTTEAKFEEPRVIDLWDLAQSANLTDKELEAFREELKYFKAKIEAHNHYQKQLEIAHEELRHAESVGDGERVSRSREKHALLEGRTKELGYTVKKHLQDLSGRISRARHNEL", "Kd", 38]
]}

Param item = MegaRAP1 d3 K217E (ligand, also called MegaRAP1 K217E) GLDRLRRVSHQGYTTEAEFEEPRVIDLWDLAQSANLTDKELEAFREELKYFKAKIEAHNHYQKQLEIAHEELRHAESVGDGERVSRSREKHALLEGRTKELGYTVKKHLQDLSGRISRARHNEL ; retrieve measured Kd. 25

Values from patent US20120251444A1
